system: OVCAR3 cells; assay: MTT proliferation assay, OVCAR3; assay type: cell-based; conditions: 5 days compound exposure, 1:3 serial dilution starting at 10 μM;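 further: compound given as an 8- or 10-point series, one day after plating, with exposure covering roughly 3-4 cell doublings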
*1 amine or outer side, *2 acyl side, *3 side chain or, on linkers, in order; H or OH if unused. Where a SMILES comes first, the peptide text is derived from it. Bridges are numbered along the chain shown (N, C = ends). [ ]: non-standard residue; d: D form. The star is where a group is joined. X124 = CC(C)C(=O)N1[C@@H]2CC[C@H]1C=C(c1ccc(F)cc1C[C@@H](C(=O)[*:2])N(C)[*:1])C2; X1 = C[C@H]1CN(c2ccc(-c3ccc(Cl)cc3C[C@@H](C(=O)[*:2])N(C)[*:1])cc2)CCN1C; X16 = CN([C@@H](Cc1cc(Cl)ccc1-c1cnc2c(cnn2C)c1)C(=O)[*:2])[*:1]; X90 = CC(=O)N1CC=C(c2ccc(Cl)cc2C[C@@H](C(=O)[*:2])N(C)[*:1])CC1; X184 = CC(=O)N1CCC(c2ccc(F)cc2C[C@@H](C(=O)[*:2])N(C)[*:1])CC1; X193 = CN([C@@H](Cc1cc(Cl)ccc1-c1cnc2nonc2c1)C(=O)[*:2])[*:1]; NMehhhLys(Me) = CN([C@@H](CCCCCCCN(C)[*:3])C(=O)[*:2])[*:1]; X2 = CN([C@@H](Cc1cc(Cl)ccc1-c1ccc2ncnn2c1)C(=O)[*:2])[*:1]; X66 = CN([C@@H](Cc1cc(Cl)ccc1-c1cccnc1)C(=O)[*:2])[*:1]; NMe(hhhLys) = CN([C@@H](CCCCCCCN[*:3])C(=O)[*:2])[*:1]; cBuCO(3,3-F2-1-CF3) = O=C(C1(C(F)(F)F)CC(F)(F)C1)*; Pro(trans-4-F) = O=C(O)[C@@H]1C[C@@H](F)CN1; Gly(cPr) = N[C@H](C(=O)O)C1CC1
Rule: GI50 below 0.05 µM gives Condition met. Equal to or above 0.05 µM gives Condition not met.

Query: Please check: GI50 for CC(C)C[C@@H]1NC(=O)[C@@H](N(C)C(=O)[C@@H](NC(=O)[C@@H]2C[C@@H](F)CN2C(=O)C2(C(F)(F)F)CC(F)(F)C2)C2CC2)CC=CCCCCNC(=O)[C@H](Cc2cc(F)cnc2OC2CC2)N(C)C1=O , strictly under 0.05 µM or not?
Response: Condition not met

Query: // next record CC(C)C[C@@H]1NC(=O)[C@@H](N(C)C(=O)[C@@H](NC(=O)[C@@H]2C[C@@H](F)CN2C(=O)C2(C(F)(F)F)CC(F)(F)C2)C2CC2)CCCCCCCN(C)C(=O)[C@H](Cc2cc(F)ccc2C2=C[C@@H]3CC[C@H](C2)N3C(=O)C(C)C)N(C)C1=O [Example 317] ({cBuCO(3,3-F2-1-CF3)}-[Pro(trans-4-F)][Gly(cPr)][NMehhhLys(Me)]L[X124]; lactam 3-C)
Response: Condition met

Query: // next record CC(C)C[C@@H]1NC(=O)[C@@H](N(C)C(=O)[C@@H](NC(=O)[C@@H]2C[C@@H](F)CN2C(=O)C2(C(F)(F)F)CC(F)(F)C2)C2CC2)CCCCCCCN(C)C(=O)[C@H](Cc2cc(Cl)ccc2-c2cnc3c(cnn3C)c2)N(C)C1=O [Example 250] ({cBuCO(3,3-F2-1-CF3)}-[Pro(trans-4-F)][Gly(cPr)][NMehhhLys(Me)]L[X16]; lactam 3-C)
Response: Condition met

Query: // next record CC(C)C[C@@H]1NC(=O)[C@@H](N(C)C(=O)[C@@H](NC(=O)[C@@H]2C[C@@H](F)CN2C(=O)C2(C(F)(F)F)CC(F)(F)C2)C2CC2)CCCCCCCN(C)C(=O)[C@H](Cc2cc(Cl)ccc2-c2cccnc2)N(C)C1=O [Example 196] ({cBuCO(3,3-F2-1-CF3)}-[Pro(trans-4-F)][Gly(cPr)][NMehhhLys(Me)]L[X66]; lactam 3-C)
Response: Condition met

Query: // next record CC(C)C[C@@H]1NC(=O)[C@@H](N(C)C(=O)[C@@H](NC(=O)[C@@H]2C[C@@H](F)CN2C(=O)C2(C(F)(F)F)CC(F)(F)C2)C2CC2)CCCCCCCN(C)C(=O)[C@H](Cc2cc(Cl)ccc2-c2ccc3ncnn3c2)N(C)C1=O [Example 232] ({cBuCO(3,3-F2-1-CF3)}-[Pro(trans-4-F)][Gly(cPr)][NMehhhLys(Me)]L[X2]; lactam 3-C)
Response: Condition not met

Query: // next record CC(=O)N1CC=C(c2ccc(Cl)cc2C[C@H]2C(=O)N(C)CCCCCCC[C@H](N(C)C(=O)[C@@H](NC(=O)[C@@H]3C[C@@H](F)CN3C(=O)C3(C(F)(F)F)CC(F)(F)C3)C3CC3)C(=O)N[C@@H](CC(C)C)C(=O)N2C)CC1 [Example 50] ({cBuCO(3,3-F2-1-CF3)}-[Pro(trans-4-F)][Gly(cPr)][NMehhhLys(Me)]L[X90]; lactam 3-C)
Response: Condition met

Query: // next record CC(C)C[C@@H]1NC(=O)[C@@H](N(C)C(=O)[C@@H](NC(=O)[C@@H]2C[C@@H](F)CN2C(=O)C2(C(F)(F)F)CC(F)(F)C2)C2CC2)CCCCCCCN(C)C(=O)[C@H](Cc2cc(Cl)ccc2-c2ccc(N3CCN(C)[C@@H](C)C3)cc2)N(C)C1=O [Example 409] ({cBuCO(3,3-F2-1-CF3)}-[Pro(trans-4-F)][Gly(cPr)][NMehhhLys(Me)]L[X1]; lactam 3-C)
Response: Condition met

Query: // next record CC(=O)N1CC=C(c2ccc(Cl)cc2C[C@H]2C(=O)NCCCCCCC[C@H](N(C)C(=O)[C@@H](NC(=O)[C@@H]3C[C@@H](F)CN3C(=O)C3(C(F)(F)F)CC(F)(F)C3)C3CC3)C(=O)N[C@@H](CC(C)C)C(=O)N2C)CC1 [Example 20] ({cBuCO(3,3-F2-1-CF3)}-[Pro(trans-4-F)][Gly(cPr)][NMe(hhhLys)]L[X90]; lactam 3-C)
Response: Condition met

Query: // next record CC(C)C[C@@H]1NC(=O)[C@@H](N(C)C(=O)[C@@H](NC(=O)[C@@H]2C[C@@H](F)CN2C(=O)C2(C(F)(F)F)CCC2)C2CC2)CC=CCCCCN(C)C(=O)[C@H](Cc2cc(Cl)ccc2-c2cncnc2)N(C)C1=O
Response: Condition not met

Query: // next record CC(C)C[C@@H]1NC(=O)[C@@H](N(C)C(=O)[C@@H](NC(=O)[C@@H]2C[C@@H](F)CN2C(=O)C2(C(F)(F)F)CC(F)(F)C2)C2CC2)CCCCCCCN(C)C(=O)[C@H](Cc2cc(Cl)ccc2-c2cnc3nonc3c2)N(C)C1=O [Example 171] ({cBuCO(3,3-F2-1-CF3)}-[Pro(trans-4-F)][Gly(cPr)][NMehhhLys(Me)]L[X193]; lactam 3-C)
Response: Condition not met

Query: // next record CC(=O)N1CCC(c2ccc(F)cc2C[C@H]2C(=O)N(C)CCCCCCC[C@H](N(C)C(=O)[C@@H](NC(=O)[C@@H]3C[C@@H](F)CN3C(=O)C3(C(F)(F)F)CC(F)(F)C3)C3CC3)C(=O)N[C@@H](CC(C)C)C(=O)N2C)CC1 [Example 45] ({cBuCO(3,3-F2-1-CF3)}-[Pro(trans-4-F)][Gly(cPr)][NMehhhLys(Me)]L[X184]; lactam 3-C)
Response: Condition met

---

I'd be grateful if you could share measured pIC50 for these entries.
molecular target: CyclinB1/CDK1 (Homo sapiens, UniProt P14635); construct: purchased Eurofins, discovery 14-450; assay: Fluorescence Polarization (FP) competitive binding assay, Cyclin B1/Cdk1; details: 10 nM Cyclin B1/Cdk1, 2 nM FAM probe; average of 2-3 independent experiments; read-out: Cyclin B FP IC50;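 further: fluorescence polarization read after equilibration at room temperature, with IC50 taken from serially diluted dose-response curves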
*1 amine or outer side, *2 acyl side, *3 side chain or, on linkers, in order; H or OH if unused. Where a SMILES comes first, the peptide text is derived from it. Bridges are numbered along the chain shown (N, C = ends). [ ]: non-standard residue; d: D form. The star is where a group is joined. X185 = CN([C@@H](Cc1cc(Cl)ccc1-c1ccc(N2CCOC(C)(C)C2)cc1)C(=O)[*:2])[*:1]; X137 = CN([C@@H](Cc1cc(F)ccc1-c1cnn(S(C)(=O)=O)c1)C(=O)[*:2])[*:1]; NMehhhLys(Me) = CN([C@@H](CCCCCCCN(C)[*:3])C(=O)[*:2])[*:1]; X194 = CN([C@@H](Cc1cc(Cl)ccc1-c1ccnnc1)C(=O)[*:2])[*:1]; NMe(hhhLys) = CN([C@@H](CCCCCCCN[*:3])C(=O)[*:2])[*:1]; X94 = CN([C@@H](Cc1cc(F)ccc1C1CC1)C(=O)[*:2])[*:1]; cBuCO(3,3-F2-1-CF3) = O=C(C1(C(F)(F)F)CC(F)(F)C1)*; NMePhe(2,5-Cl2) = CN[C@@H](Cc1cc(Cl)ccc1Cl)C(=O)O; Pro(trans-4-F) = O=C(O)[C@@H]1C[C@@H](F)CN1; Pivaloyl(3,3,3-F3) = CC(C)(C(=O)*)C(F)(F)F; Gly(cPr) = N[C@H](C(=O)O)C1CC1
Field pIC50 (float): negative decimal logarithm of the concentration in molar.

Query: Which pIC50 is listed for CC(C)C[C@@H]1NC(=O)[C@@H](N(C)C(=O)[C@@H](NC(=O)[C@@H]2C[C@@H](F)CN2C(=O)C2(C(F)(F)F)CC(F)(F)C2)C2CC2)CCCCCCCN(C)C(=O)[C@H](Cc2cc(F)ccc2C2CC2)N(C)C1=O [Example 121] ({cBuCO(3,3-F2-1-CF3)}-[Pro(trans-4-F)][Gly(cPr)][NMehhhLys(Me)]L[X94]; lactam 3-C) ?
Response: 7.70

Query: // next record CC(C)C[C@@H]1NC(=O)[C@@H](N(C)C(=O)[C@@H](NC(=O)[C@@H]2C[C@@H](F)CN2C(=O)C2(C(F)(F)F)CC(F)(F)C2)C2CC2)CCCCCCCN(C)C(=O)[C@H](Cc2cc(Cl)ccc2-c2ccc(N3CCOC(C)(C)C3)cc2)N(C)C1=O [Example 366] ({cBuCO(3,3-F2-1-CF3)}-[Pro(trans-4-F)][Gly(cPr)][NMehhhLys(Me)]L[X185]; lactam 3-C)
Response: 7.70

Query: // next record CC(C)C[C@@H]1NC(=O)[C@@H](N(C)C(=O)[C@H](C)NC(=O)[C@@H]2C[C@@H](F)CN2C(=O)C2(C(F)(F)F)CC(F)(F)C2)CCCCCCCNC(=O)[C@H](Cc2cc(Cl)ccc2Cl)N(C)C1=O [Example 55] ({cBuCO(3,3-F2-1-CF3)}-[Pro(trans-4-F)]A[NMe(hhhLys)]L[NMePhe(2,5-Cl2)]; lactam 3-C)
Response: 7.10

Query: // next record CC(C)C[C@@H]1NC(=O)[C@@H](N(C)C(=O)[C@@H](NC(=O)[C@@H]2C[C@@H](F)CN2C(=O)C2(C(F)(F)F)CCC2)C2CC2)CC=CCCCCN(C)C(=O)[C@H](Cc2cc(Cl)cnc2OC(C)C)N(C)C1=O [Example 137]
Response: 7.70

Query: // next record CC(C)C[C@@H]1NC(=O)[C@@H](N(C)C(=O)[C@@H](NC(=O)[C@@H]2C[C@@H](F)CN2C(=O)C2(C(F)(F)F)CC(F)(F)C2)C2CC2)CCCCCCCN(C)C(=O)[C@H](Cc2cc(Cl)ccc2-c2ccnnc2)N(C)C1=O [Example 292] ({cBuCO(3,3-F2-1-CF3)}-[Pro(trans-4-F)][Gly(cPr)][NMehhhLys(Me)]L[X194]; lactam 3-C)
Response: 7.70

Query: // next record CC(C)C[C@@H]1NC(=O)[C@@H](N(C)C(=O)[C@@H](NC(=O)[C@@H]2C[C@@H](F)CN2C(=O)C(C)(C)C(F)(F)F)C2CC2)CCCCCCCN(C)C(=O)[C@H](Cc2cc(F)ccc2-c2cnn(S(C)(=O)=O)c2)N(C)C1=O [Example 304] ({Pivaloyl(3,3,3-F3)}-[Pro(trans-4-F)][Gly(cPr)][NMehhhLys(Me)]L[X137]; lactam 3-C)
Response: 7.70
